pIC50 reference
System: U-87 MG
Assay: Cytotoxicity against human U-87MG cells assessed as cell growth inhibition measured after 48 hrs by MTS colorimetric assay
Type: functional, cell-based, U-87MG ATCC
Notebook: values listed as pIC50 are -log10 of the concentration (mol/L).

{"smiles.str": "COc1cc(C(=O)c2cn(-c3ccc(F)cc3)cc2-c2ccncc2)cc(OC)c1OC", "value.measured": 7.41}

Would you kindly look at the next entry?
[Q] pIC50 lookup needed for COc1cc(C(=O)c2cn(-c3ccc(C)cc3)cc2-c2ccsc2)cc(OC)c1OC , thanks.
[A] 7.71

====

inhibition reference
Target: Tubulin (Homo sapiens) (UniProt P68371+Q9H4B7+P0DPH7+P68366+Q13509+Q71U36+P04350+Q3ZCM7+P07437+P68363+Q9BQE3+Q6PEY2+Q13885+Q9BVA1+Q9BUF5)
Assay: Inhibition of [3H]Colchicine binding to tubulin (unknown origin) at 1 uM measured after 10 mins by DEAE-Cellulose filter method relative to control
Format: protein-complex assay
Give the value in % but do not write % after it.

These solved cases illustrate the format of a correct answer.
{"smiles.str": "COc1cc(C(=O)c2cn(-c3ccc(F)cc3)cc2-c2ccoc2)cc(OC)c1OC", "property.measured": "inhibition", "unit.spec": "%", "value.measured": 71}
{"smiles.str": "COc1cc(C(=O)c2cn(-c3ccc(C)cc3)cc2-c2cccnc2)cc(OC)c1OC", "property.measured": "inhibition", "unit.spec": "%", "value.measured": 58}
{"smiles.str": "COc1cc(C(=O)c2cn(-c3ccc(C)cc3)cc2-c2ccoc2)cc(OC)c1OC", "property.measured": "inhibition", "unit.spec": "%", "value.measured": 71}
{"smiles.str": "COc1cc(C(=O)c2cn(-c3ccc(C)cc3)cc2-c2nccs2)cc(OC)c1OC", "property.measured": "inhibition", "unit.spec": "%", "value.measured": 63}
{"smiles.str": "COc1cc(C(=O)c2cn(-c3cccc(C)c3)cc2-c2ccoc2)cc(OC)c1OC", "property.measured": "inhibition", "unit.spec": "%", "value.measured": 64}
{"smiles.str": "COc1cc(C(=O)c2cn(-c3ccc(C)cc3)cc2-c2ccsc2)cc(OC)c1OC", "property.measured": "inhibition", "unit.spec": "%", "value.measured": 71}
{"smiles.str": "COc1cc(C(=O)c2cn(-c3ccc(C)cc3)cc2-c2ncco2)cc(OC)c1OC", "property.measured": "inhibition", "unit.spec": "%", "value.measured": 45}
{"smiles.str": "COc1cc(C(=O)c2cn(-c3ccc(C)cc3)cc2-c2ccncc2)cc(OC)c1OC", "property.measured": "inhibition", "unit.spec": "%", "value.measured": 70}

[Q] inhibition lookup needed for COc1cc(C(=O)c2cn(-c3ccc(C)cc3)cc2-c2ccco2)cc(OC)c1OC , thanks.
[A] 71

====

Target: Tubulin (Homo sapiens) (UniProt P68371+Q9H4B7+P0DPH7+P68366+Q13509+Q71U36+P04350+Q3ZCM7+P07437+P68363+Q9BQE3+Q6PEY2+Q13885+Q9BVA1+Q9BUF5)
Experiment: Inhibition of [3H]Colchicine binding to tubulin (unknown origin) at 5 uM measured after 10 mins by DEAE-Cellulose filter method relative to control
Format: protein-complex assay
Note: every record was labeled by where its inhibition sits among bin 0 (below 80%), bin 1 (80% to below 90%), bin 2 (90% or more)

Example entries and their recorded answers appear below.
{"smiles.str": "COc1cc(C(=O)c2cn(-c3ccc(F)cc3)cc2-c2ccccn2)cc(OC)c1OC", "label.value": "bin 0"}
{"smiles.str": "COc1cc(C(=O)c2cn(-c3ccc(F)cc3)cc2-c2ncco2)cc(OC)c1OC", "label.value": "bin 0"}
{"smiles.str": "COc1cc(C(=O)c2cn(-c3cccc(C)c3)cc2-c2ncco2)cc(OC)c1OC", "label.value": "bin 0"}

[Q] Each compound maps to one class by inhibition. Which class for COc1cc(C(=O)c2cn(-c3cccc(C)c3)cc2-c2ccoc2)cc(OC)c1OC ?
[A] bin 1

[Q] Each compound maps to one class by inhibition. Which class for COc1cc(C(=O)c2cn(-c3cccc(C)c3)cc2-c2nccs2)cc(OC)c1OC ?
[A] bin 1

[Q] Each compound maps to one class by inhibition. Which class for COc1cc(C(=O)c2cn(-c3ccc(C)cc3)cc2-c2ccncc2)cc(OC)c1OC ?
[A] bin 2

[Q] Each compound maps to one class by inhibition. Which class for COc1cc(C(=O)c2cn(-c3cccc(C)c3)cc2-c2ccccn2)cc(OC)c1OC ?
[A] bin 0

====

Target: Tubulin (Homo sapiens) (UniProt P68371+Q9H4B7+P0DPH7+P68366+Q13509+Q71U36+P04350+Q3ZCM7+P07437+P68363+Q9BQE3+Q6PEY2+Q13885+Q9BVA1+Q9BUF5)
Test: Inhibition of [3H]Colchicine binding to tubulin (unknown origin) at 5 uM measured after 10 mins by DEAE-Cellulose filter method relative to control
Assay type: protein-complex assay
property.measured: inhibition (%)
Give the value in % but do not write % after it.

These solved cases illustrate the format of a correct answer.
{"smiles.str": "COc1cc(C(=O)c2cn(-c3ccc(F)cc3)cc2-c2nccs2)cc(OC)c1OC", "value.measured": 69}
{"smiles.str": "COc1cc(C(=O)c2cn(-c3cccc(C)c3)cc2-c2ccncc2)cc(OC)c1OC", "value.measured": 88}
{"smiles.str": "COc1cc(C(=O)c2cn(-c3ccc(F)cc3)cc2-c2ccsc2)cc(OC)c1OC", "value.measured": 76}

[Q] inhibition lookup needed for COc1cc(C(=O)c2cn(-c3ccc(C)cc3)cc2-c2ccccn2)cc(OC)c1OC , thanks.
[A] 83

[Q] inhibition lookup needed for COc1cc(C(=O)c2cn(-c3ccc(F)cc3)cc2-c2ccco2)cc(OC)c1OC , thanks.
[A] 82

====

IC50 reference
System: SW-620
Assay: Cytotoxicity against human SW-620 cells assessed as cell growth inhibition measured after 48 hrs by XTT dye based assay
Format: functional
Conditions: SW-620, 48 h
Give the value in nM but do not write nM after it.

[Q] IC50 lookup needed for COc1cc(C(=O)c2cn(-c3ccc(F)cc3)cc2-c2ccncc2)cc(OC)c1OC , thanks.
[A] 66.5

[Q] IC50 lookup needed for COc1cc(C(=O)c2cn(-c3ccc(C)cc3)cc2-c2ccsc2)cc(OC)c1OC , thanks.
[A] 111

====

inhibition reference
Target: Tubulin (Homo sapiens) (UniProt P68371+Q9H4B7+P0DPH7+P68366+Q13509+Q71U36+P04350+Q3ZCM7+P07437+P68363+Q9BQE3+Q6PEY2+Q13885+Q9BVA1+Q9BUF5)
Assay: Inhibition of [3H]Colchicine binding to tubulin (unknown origin) at 5 uM measured after 10 mins by DEAE-Cellulose filter method relative to control
Type: protein-complex assay

{"smiles.str": "COc1cc(C(=O)c2cn(-c3ccc(C)cc3)cc2-c2cccnc2)cc(OC)c1OC", "inhibition": "92%"}

[Q] inhibition lookup needed for COc1cc(C(=O)c2cn(-c3ccc(F)cc3)cc2-c2cccnc2)cc(OC)c1OC , thanks.
[A] 80%

[Q] inhibition lookup needed for COc1cc(C(=O)c2cn(-c3ccc(C)cc3)cc2-c2ccsc2)cc(OC)c1OC , thanks.
[A] 90%

[Q] inhibition lookup needed for COc1cc(C(=O)c2cn(-c3cccc(C)c3)cc2-c2cccnc2)cc(OC)c1OC , thanks.
[A] 78%

[Q] inhibition lookup needed for COc1cc(C(=O)c2cn(-c3ccc(C)cc3)cc2-c2nccs2)cc(OC)c1OC , thanks.
[A] 91%

[Q] inhibition lookup needed for COc1cc(C(=O)c2cn(-c3ccc(C)cc3)cc2-c2ccoc2)cc(OC)c1OC , thanks.
[A] 95%

====

Biological target: Tubulin (Homo sapiens) (UniProt P68371+Q9H4B7+P0DPH7+P68366+Q13509+Q71U36+P04350+Q3ZCM7+P07437+P68363+Q9BQE3+Q6PEY2+Q13885+Q9BVA1+Q9BUF5)
Assay: Inhibition of [3H]Colchicine binding to tubulin (unknown origin) at 5 uM measured after 10 mins by DEAE-Cellulose filter method relative to control
Assay type: protein-complex assay
Parameter threshold = 80%. Response is rule met when inhibition meets or exceeds it, else rule not met.

{"smiles.str": "COc1cc(C(=O)c2cn(-c3ccc(C)cc3)cc2-c2ncco2)cc(OC)c1OC", "label.value": "rule met"}

[Q] Could you verify whether the entry COc1cc(C(=O)c2cn(-c3ccc(F)cc3)cc2-c2ccncc2)cc(OC)c1OC shows inhibition of no less than 80%?
[A] rule met

[Q] Could you verify whether the entry COc1cc(C(=O)c2cn(-c3cccc(C)c3)cc2-c2ccsc2)cc(OC)c1OC shows inhibition of no less than 80%?
[A] rule not met

[Q] Could you verify whether the entry COc1cc(C(=O)c2cn(-c3ccc(C)cc3)cc2-c2ccco2)cc(OC)c1OC shows inhibition of no less than 80%?
[A] rule met

[Q] Could you verify whether the entry COc1cc(C(=O)c2cn(-c3ccc(F)cc3)cc2-c2ccoc2)cc(OC)c1OC shows inhibition of no less than 80%?
[A] rule met
